TARGET ENTITY: Lethal factor (Bacillus anthracis, UniProt P15917)
Sequence (P15917 whole entry): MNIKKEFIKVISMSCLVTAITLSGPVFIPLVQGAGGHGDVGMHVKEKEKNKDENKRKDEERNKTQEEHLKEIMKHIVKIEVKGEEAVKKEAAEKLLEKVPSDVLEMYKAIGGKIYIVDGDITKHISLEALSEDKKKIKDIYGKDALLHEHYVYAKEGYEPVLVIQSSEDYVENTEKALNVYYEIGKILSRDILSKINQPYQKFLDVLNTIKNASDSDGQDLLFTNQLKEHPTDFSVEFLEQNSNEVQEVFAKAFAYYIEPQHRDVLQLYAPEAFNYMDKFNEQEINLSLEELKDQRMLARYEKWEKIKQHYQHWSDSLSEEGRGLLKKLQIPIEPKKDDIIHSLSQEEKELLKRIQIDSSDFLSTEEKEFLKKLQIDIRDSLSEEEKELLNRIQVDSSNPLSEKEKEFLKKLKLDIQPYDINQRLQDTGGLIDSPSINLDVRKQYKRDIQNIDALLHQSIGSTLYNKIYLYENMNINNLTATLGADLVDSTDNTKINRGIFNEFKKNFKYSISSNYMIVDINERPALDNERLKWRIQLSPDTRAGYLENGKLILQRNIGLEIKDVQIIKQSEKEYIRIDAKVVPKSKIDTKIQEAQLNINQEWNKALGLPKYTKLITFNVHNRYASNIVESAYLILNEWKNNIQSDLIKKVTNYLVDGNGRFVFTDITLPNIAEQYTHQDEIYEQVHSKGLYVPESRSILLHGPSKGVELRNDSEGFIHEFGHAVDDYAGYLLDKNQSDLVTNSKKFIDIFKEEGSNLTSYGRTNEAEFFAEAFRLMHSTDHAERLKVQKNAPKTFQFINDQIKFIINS
Response field label takes T when Ki is strictly below 1 nM and F in all other cases.

Lab note: Ki threshold 1 nM. Does this compound come in strictly under it? `CO[C@H](C[C@H](CCN1CCOCC1)C(=O)NO)c1ccc(F)cc1` F

Entry `Cc1cc(S(=O)(=O)NCCCC[C@@H](Nc2cc(C)c(F)c(C)c2)C(=O)NO)ccc1F` please F

Entry `Cc1cc(N[C@H](CCCCNCc2ccc(C(F)(F)F)cc2)C(=O)NO)cc(C)c1F` please T

Entry `Cc1cc(N[C@H](CCCCNCc2ccc(Cl)cc2)C(=O)NO)cc(C)c1F` please F

Entry `Cc1cc(N[C@H](CCCCNCc2ccc([N+](=O)[O-])cc2)C(=O)NO)cc(C)c1F` please T

Entry `CO[C@H](C[C@H](CCN1CCN(Cc2ccccc2)CC1)C(=O)NO)c1ccc(F)cc1` please F

Entry CO[C@H](C[C@H](CCN1CCCC(Cc2ccc(F)cc2)C1)C(=O)NO)c1ccc(F)cc1 (stereo not given in full) please F

Entry `Cc1cc(N[C@H](CCCCNCc2ccc(C(C)(C)C)cc2)C(=O)NO)cc(C)c1F` please F

Entry `Cc1cc(NC(=O)NCCCC[C@@H](Nc2cc(C)c(F)c(C)c2)C(=O)NO)ccc1F` please F

Entry `Cc1cc(N[C@H](CCCCNCc2ccccc2F)C(=O)NO)cc(C)c1F` please T

* * *

Can you tell me pKi for the items I'm about to list?
TARGET ENTITY: Lethal factor (Bacillus anthracis)
Sequence (P15917 whole entry): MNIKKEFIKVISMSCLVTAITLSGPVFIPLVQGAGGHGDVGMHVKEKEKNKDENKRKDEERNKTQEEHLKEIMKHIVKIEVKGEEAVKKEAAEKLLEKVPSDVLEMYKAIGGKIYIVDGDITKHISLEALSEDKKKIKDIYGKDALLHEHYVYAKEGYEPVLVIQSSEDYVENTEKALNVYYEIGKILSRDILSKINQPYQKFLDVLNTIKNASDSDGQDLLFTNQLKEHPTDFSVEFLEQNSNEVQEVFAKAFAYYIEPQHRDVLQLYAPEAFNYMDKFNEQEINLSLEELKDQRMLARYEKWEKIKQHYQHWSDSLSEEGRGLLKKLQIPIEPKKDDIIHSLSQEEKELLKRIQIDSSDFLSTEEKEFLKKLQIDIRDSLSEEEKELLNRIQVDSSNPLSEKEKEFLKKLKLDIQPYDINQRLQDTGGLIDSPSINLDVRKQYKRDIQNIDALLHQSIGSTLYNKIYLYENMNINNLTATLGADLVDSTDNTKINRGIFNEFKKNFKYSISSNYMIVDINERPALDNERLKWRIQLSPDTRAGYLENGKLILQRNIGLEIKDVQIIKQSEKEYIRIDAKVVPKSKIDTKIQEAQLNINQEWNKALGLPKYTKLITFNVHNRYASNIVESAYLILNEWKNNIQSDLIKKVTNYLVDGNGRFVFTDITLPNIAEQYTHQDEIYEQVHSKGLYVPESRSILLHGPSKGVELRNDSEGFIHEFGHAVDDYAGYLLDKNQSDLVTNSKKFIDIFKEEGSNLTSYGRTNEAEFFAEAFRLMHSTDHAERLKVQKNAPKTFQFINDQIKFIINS
# pKi = -log10(concentration in molar units)

Which value of pKi has been reported for `CO[C@H](C[C@H](CCN1CCN(CCc2ccccc2)CC1)C(=O)NO)c1ccc(F)cc1` in the records? 6.93

Entry `CO[C@H](C[C@H](CCN1CCNCC1)C(=O)NO)c1ccc(F)cc1` please 7.05

Entry `Cc1cc(N[C@H](CCCCN)C(=O)NO)cc(C)c1F` please 8.09

Entry `CO[C@H](C[C@H](CCN(C)CCCc1ccccc1)C(=O)NO)c1ccc(F)cc1` please 7.38

Entry `Cc1cc(N[C@H](CCCCNCCCc2ccc(F)cc2)C(=O)NO)cc(C)c1F` please 8.89
